- ASSAY EXPLANATION: in vivo
- MEASUREMENT CONDITIONS: mouse, ip
- Method: The interaction of sound with the convulsive threshold of drugs is a known phenomenon which can be used to evaluate such side effects. […] In the test operations, mice are administered a test compound by intraperitoneal injection at various dosages, and the number of mice showing tonic convulsions and the number of fatalities occurring within 30 minutes is recorded. […]
So basically, if TD50 comes in under 90 mg/kg it's true (1), and if it's 90 mg/kg or more it's false (0).

MOLECULE	CLASS LABEL
Cc1cc2nnc(C)n2nc1N1CCOCC1	false (0)
c1nnc2c3c(c(N4CCCC4)nn12)CCCC3	false (0)
c1nnc2c3c(c(N4CCOCC4)nn12)C1CCC3CC1	true (1)
Cc1nnc2c3c(c(N4CCCC4)nn12)C1CCC3C1 (stereo not drawn)	true (1)

Kindly review the next molecule as well.
Query string: Decide: TD50 of CN1CCN(c2nn3cnnc3c3c2C2CCC3C2)CC1 (stereo not drawn) strictly below 90 mg/kg?
Result string: false (0)
